# experimental.target: Gastrin-releasing peptide receptor (Rattus norvegicus)
# Sequence (P52500 whole entry N28S): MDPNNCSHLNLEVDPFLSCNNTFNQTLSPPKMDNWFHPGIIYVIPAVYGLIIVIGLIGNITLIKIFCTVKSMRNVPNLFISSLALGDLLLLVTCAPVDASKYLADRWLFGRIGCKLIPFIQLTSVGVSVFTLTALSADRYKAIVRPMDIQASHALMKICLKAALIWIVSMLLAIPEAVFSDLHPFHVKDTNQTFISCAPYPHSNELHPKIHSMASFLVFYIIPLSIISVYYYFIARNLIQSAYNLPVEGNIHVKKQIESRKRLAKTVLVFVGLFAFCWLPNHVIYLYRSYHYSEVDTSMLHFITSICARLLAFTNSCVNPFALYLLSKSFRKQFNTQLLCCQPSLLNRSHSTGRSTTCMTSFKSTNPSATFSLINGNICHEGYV
Where a SMILES comes first, the peptide text is derived from it. [ ]: non-standard residue; d: D form. The star is where a group is joined. dProψ(CH2NH)PheNH2 = NC(=O)[C@H](Cc1ccccc1)NC[C@H]1CCCN1*; Hydrocinnamoyl = O=C(CCc1ccccc1)*; pGlu = O=C1CC[C@@H](C(=O)O)N1; Nle = CCCC[C@H](N)C(=O)O; βAla = NCCC(=O)O
measured.parameter: Ki (nM)

Solved entries (count: 8):
compound	experimental.target	Ki (nM)
CCCC[C@H](NC(=O)[C@H](Cc1ccccc1)NC(=O)[C@H](Cc1c[nH]cn1)NC(=O)CCNC(=O)[C@@H](NC(=O)[C@H](C)NC(=O)[C@H](Cc1c[nH]c2ccccc12)NC(=O)[C@H](CCC(N)=O)NC(=O)[C@H](N)Cc1ccccc1)C(C)C)C(N)=O [DPhe6,BetaAla11,Phe13,Nle14-Bn(6-14)] (H-[dF]QWAV[βAla]HF[Nle]-NH2)	Gastrin-releasing peptide receptor (Rattus norvegicus)	0.99
CC(C)[C@H](NC(=O)[C@H](C)NC(=O)[C@H](Cc1c[nH]c2ccccc12)NC(=O)[C@H](Cc1cnc[nH]1)NC(=O)CCc1ccccc1)C(=O)N[C@H](C)C(=O)N[C@@H](Cc1cnc[nH]1)C(=O)N1CCC[C@@H]1CN[C@@H](Cc1ccccc1)C(N)=O [CAS_l] (Hydrocinnamoyl-HWAV[dA]H-{dProψ(CH2NH)PheNH2})	Gastrin-releasing peptide receptor (Rattus norvegicus)	0.74
COC(=O)[C@H](CC(C)C)NC(=O)[C@H](Cc1cnc[nH]1)NC(=O)CNC(=O)[C@@H](NC(=O)[C@H](C)NC(=O)[C@H](Cc1c[nH]c2ccccc12)NC(=O)[C@H](CCC(N)=O)NC(=O)[C@H](N)Cc1ccccc1)C(C)C [DPhe6-Bn(6-13)methylester]	Gastrin-releasing peptide receptor (Rattus norvegicus)	10
CSCC[C@H](NC(=O)[C@H](Cc1ccccc1)NC(=O)[C@H](Cc1cnc[nH]1)NC(=O)CNC(=O)[C@@H](NC(=O)[C@H](CCCN=C(N)N)NC(=O)[C@H](Cc1c[nH]c2ccccc12)NC(=O)[C@H](CCC(N)=O)NC(=O)[C@H](CC(N)=O)NC(=O)CNC(=O)[C@H](CC(C)C)NC(=O)[C@H](CO)NC(=O)[C@H](CCC(N)=O)NC(=O)[C@@H]1CCC(=O)N1)C(C)C)C(N)=O [CAS_31362-50-2] ([pGlu]QSLGNQWRVGHFM-NH2)	Gastrin-releasing peptide receptor (Rattus norvegicus)	3200
CCCNC(=O)[C@H](CC(C)C)NC(=O)[C@H](Cc1cnc[nH]1)NC(=O)CNC(=O)[C@@H](NC(=O)[C@H](C)NC(=O)[C@H](Cc1c[nH]c2ccccc12)NC(=O)[C@H](CCC(N)=O)NC(=O)[C@H](N)Cc1ccccc1)C(C)C [DPhe6-Bn(6-13)propylamide]	Gastrin-releasing peptide receptor (Rattus norvegicus)	6
CSCC[C@H](NC(=O)[C@H](CC(C)C)NC(=O)[C@H](CO)NC(=O)CNC(=O)[C@@H](NC(=O)[C@H](C)NC(=O)[C@H](Cc1c[nH]c2ccccc12)NC(=O)[C@H](CC(C)C)NC(=O)[C@@H]1CCC(=O)N1)C(C)C)C(N)=O [Leu8-phyllolitorin] ([pGlu]LWAVGSLM-NH2)	Gastrin-releasing peptide receptor (Rattus norvegicus)	420
CC(C)C[C@H](NC(=O)[C@H](CC(C)C)NC(=O)[C@@H](Cc1c[nH]c2ccccc12)NC(=O)[C@H](Cc1ccccc1)NC(=O)[C@@H](Cc1c[nH]c2ccccc12)NC(=O)[C@H](CCC(N)=O)NC(=O)[C@H](CCC(N)=O)NC(=O)[C@@H]1CCCN1C(=O)[C@H](CCCCN)NC(=O)[C@@H]1CCCN1C(=O)[C@H](N)CCCN=C(N)N)C(N)=O [Substance P,[DArg1,DTrp7,9,Leu11]] (H-[dR]PKPQQ[dW]F[dW]LL-NH2)	Gastrin-releasing peptide receptor (Rattus norvegicus)	11300
CC(C)C[C@@H](CN[C@@H](Cc1ccc(Cl)cc1)C(N)=O)NC(=O)[C@H](Cc1c[nH]cn1)NC(=O)CNC(=O)[C@@H](NC(=O)[C@H](C)NC(=O)[C@H](Cc1c[nH]c2ccccc12)NC(=O)[C@H](CCC(N)=O)NC(=O)[C@H](N)Cc1ccccc1)C(C)C [DPhe6,Leu13,Psi(CH2NH),Cpa14-Bn(6-14)]	Gastrin-releasing peptide receptor (Rattus norvegicus)	42

1. CC(C)C[C@H](NC(=O)[C@H](Cc1cnc[nH]1)NC(=O)CNC(=O)[C@@H](NC(=O)[C@H](C)NC(=O)[C@H](Cc1c[nH]c2ccccc12)NC(=O)[C@H](CCC(N)=O)NC(=O)[C@H](N)Cc1ccccc1)C(C)C)C(=O)NN [DPhe6-Bn(6-13)hydrazide]
2. CCCCCCNC(=O)[C@H](CC(C)C)NC(=O)[C@H](Cc1cnc[nH]1)NC(=O)CNC(=O)[C@@H](NC(=O)[C@H](C)NC(=O)[C@H](Cc1c[nH]c2ccccc12)NC(=O)[C@H](CCC(N)=O)NC(=O)[C@H](N)Cc1ccccc1)C(C)C [DPhe6-Bn(6-13)hexylamide]
Thinking about recorded Ki values, which is higher, 1 or 2 ? Kindly give the label for the entry you pick. 1
(1: 1200 nM, 2: 100 nM)

---

Where a SMILES comes first, the peptide text is derived from it. Bridges are numbered along the chain shown (N, C = ends). [ ]: non-standard residue; d: D form. 2Nal = N[C@@H](Cc1ccc2ccccc2c1)C(=O)O; d2Nal = N[C@H](Cc1ccc2ccccc2c1)C(=O)O
Assay system Gastrin-releasing peptide receptor (Rattus norvegicus, UniProt P52500); read-out recorded as Ki.

molecule	Ki
CC(C)[C@@H]1NC(=O)[C@H](CCCCN)NC(=O)[C@@H](Cc2c[nH]c3ccccc23)NC(=O)[C@H](Cc2ccc(O)cc2)NC(=O)[C@H](NC(=O)[C@H](N)Cc2ccc3ccccc3c2)CSSC[C@@H](C(=O)N[C@@H](Cc2ccc3ccccc3c2)C(N)=O)NC1=O (H-[d2Nal][dC]Y[dW]KVC[2Nal]-NH2; disulfide 2-7)	> 10 µM

The measured Ki that CSCC[C@H](NC(=O)[C@@H](Cc1c[nH]c2ccccc12)NC(=O)[C@@H](Cc1c[nH]c2ccccc12)NC(=O)[C@H](Cc1ccccc1)NC(=O)[C@@H](Cc1c[nH]c2ccccc12)NC(=O)[C@H](CCC(N)=O)NC(=O)[C@H](CCC(N)=O)NC(=O)[C@H]1CCCN1)C(N)=O [Substance P(4-11),[Dpro4,Dtrp7,9,10]] (H-[dP]QQ[dW]F[dW][dW]M-NH2) showed for Gastrin-releasing peptide receptor (Rattus norvegicus, UniProt P52500) is > 10 µM

---

Listed next: entries and their corresponding Ki.
# experimental.target: Bombesin receptor subtype-3 (Homo sapiens, UniProt P32247)
# Sequence (P32247 whole entry): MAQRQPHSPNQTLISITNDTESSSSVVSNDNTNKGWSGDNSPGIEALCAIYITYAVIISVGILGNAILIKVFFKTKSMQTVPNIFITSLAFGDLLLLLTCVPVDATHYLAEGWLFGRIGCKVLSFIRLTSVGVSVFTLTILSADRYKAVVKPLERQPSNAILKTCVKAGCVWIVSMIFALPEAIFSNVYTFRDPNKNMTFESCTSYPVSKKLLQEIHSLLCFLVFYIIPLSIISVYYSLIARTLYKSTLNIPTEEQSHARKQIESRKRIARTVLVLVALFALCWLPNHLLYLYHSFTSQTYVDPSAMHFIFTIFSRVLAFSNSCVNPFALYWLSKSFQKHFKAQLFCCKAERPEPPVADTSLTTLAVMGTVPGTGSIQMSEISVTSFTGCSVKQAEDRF
Where a SMILES comes first, the peptide text is derived from it. [ ]: non-standard residue; d: D form. Nle = CCCC[C@H](N)C(=O)O; βAla = NCCC(=O)O

compound	Ki
CCCC[C@H](NC(=O)[C@H](Cc1ccccc1)NC(=O)[C@H](Cc1c[nH]cn1)NC(=O)CCNC(=O)[C@@H](NC(=O)[C@H](C)NC(=O)[C@H](Cc1c[nH]c2ccccc12)NC(=O)[C@H](CCC(N)=O)NC(=O)[C@H](N)Cc1ccccc1)C(C)C)C(N)=O [DPhe6,BetaAla11,Phe13,Nle14-Bn(6-14)] (H-[dF]QWAV[βAla]HF[Nle]-NH2)	0.0089 µM
CSCC[C@H](NC(=O)[C@H](CC(C)C)NC(=O)[C@H](Cc1cnc[nH]1)NC(=O)CNC(=O)[C@@H](NC(=O)[C@H](C)NC(=O)[C@H](Cc1c[nH]c2ccccc12)NC(=O)[C@H](CCC(N)=O)NC(=O)[C@H](N)Cc1ccccc1)C(C)C)C(N)=O [DPhe6-Bn[6-14)]	> 10 µM
CC(C)C[C@H](NC(=O)[C@H](CC(C)C)NC(=O)[C@@H](Cc1c[nH]c2ccccc12)NC(=O)[C@H](Cc1ccccc1)NC(=O)[C@@H](Cc1c[nH]c2ccccc12)NC(=O)[C@H](CCC(N)=O)NC(=O)[C@H](CCC(N)=O)NC(=O)[C@@H]1CCCN1C(=O)[C@H](CCCCN)NC(=O)[C@@H]1CCCN1C(=O)[C@H](N)CCCN=C(N)N)C(N)=O [Substance P,[DArg1,DTrp7,9,Leu11]] (H-[dR]PKPQQ[dW]F[dW]LL-NH2)	> 10 µM

Now examine the next entry.
Short answer for CC(C)C[C@@H](CN[C@@H](Cc1ccc(Cl)cc1)C(N)=O)NC(=O)[C@H](Cc1c[nH]cn1)NC(=O)CNC(=O)[C@@H](NC(=O)[C@H](C)NC(=O)[C@H](Cc1c[nH]c2ccccc12)NC(=O)[C@H](CCC(N)=O)NC(=O)[C@H](N)Cc1ccccc1)C(C)C [DPhe6,Leu13,Psi(CH2NH),Cpa14-Bn(6-14)] : Ki was > 10 µM
